assayRemarks: Toxicity liver stage against HepG2, at 10uM
Type: cell-based
Design: test concentration 10 uM, cell line HepG2-A16-CD81EGFP
conditionLabel: human, HepG2-A16-CD81EGFP cells; read-out: INHIBITION
propertyMeasured: cytotoxicity at 10 µM (%)

[[record]]
molecule = "CNC(=O)CN1CCCC12CCN(C(=O)c1ccsc1)CC2"
readingunit = "%"
reportedvalue = 4.87

[[record]]
molecule = "Cc1ccccc1-c1cc(NC(=O)Cn2ccccc2=O)n(C)n1"
readingunit = "%"
reportedvalue = 3.8

[[record]]
molecule = "O=C1CC(N(C(=O)CCc2cc(F)ccc2F)C2CC2)C(=O)N1 (stereo unspecified)"
readingunit = "%"
reportedvalue = 3.62

[[record]]
molecule = "CNC(=O)[C@H]1C[C@@H]2CCN(Cc3ccc4c(c3)OCO4)C[C@@H]2O1"
readingunit = "%"
reportedvalue = 5.79

[[record]]
molecule = "COC(=O)CCCNC(=O)COc1ccccc1C(F)(F)F"
readingunit = "%"
reportedvalue = -0.969

[[record]]
molecule = "CCN1C(=O)CCCC12CCCN(C(=O)c1ccoc1)C2 (stereo unspecified)"
readingunit = "%"
reportedvalue = -5.83

[[record]]
molecule = "O=C(NC[C@H]1OC[C@@H](N(CC2CC2)CC2CC2)[C@@H]1O)Nc1ccccc1"
readingunit = "%"
reportedvalue = -2.62

[[record]]
molecule = "Cc1cc(CN2C[C@H](N3CCOCC3)[C@@H]3OCCC[C@@H]32)oc1C"
readingunit = "%"
reportedvalue = -139

[[record]]
molecule = "COc1ccc(OC)c(C2c3c(n[nH]c3C)N=C3COC(=O)C32)c1 (stereo unspecified)"
readingunit = "%"
reportedvalue = -11.3

[[record]]
molecule = "CCc1nc(CN(C)C2CCN(CCOc3ccccc3)C2)no1 (stereo unspecified)"
readingunit = "%"
reportedvalue = -34.6

[[record]]
molecule = "CC(C)[C@H]1COC(=O)N1Cc1nccn1C1CC1"
readingunit = "%"
reportedvalue = -15.4

